Values from PubChem BioAssay (NCI)

So I've got a bunch of molecules here, and I need their TGI values.
Tested on: IGROV1 ovarian
testDetails: NCI tumour cell line growth inhibition, 48 h

molecule | TGI
O=C1N[C@@H](COc2ccc(C=Nc3ccc(CCc4ccc(N=Cc5ccc(OC[C@@H]6COC(=O)N6)cc5)cc4)cc3)cc2)CO1 | > 100 µM
Cc1cc(C)c(N=Nc2c(O)c(S(=O)(=O)O)cc3cc(S(=O)(=O)O)ccc23)cc1C | > 100 µM
COc1cc([C@@H]2c3cc4c(cc3C(OC3O[C@@H]5COC(C)O[C@H]5[C@H](O)[C@H]3O)C3COC(=O)[C@@H]32)OCO4)cc(OC)c1O (some centres undefined) | > 50 µM

Attention now shifts to the item below.
Problem: IGROV1 ovarian / TGI / OCC(O)C(O)C(O)C(O)/C=N/Nc1nc(O)c(/C=C2\C=Nc3ccccc32)[nH]1 (centres undefined) : value?
Result: > 100 µM
